This collection of values is drawn from patent US12723255B2.

Listing: Vmax Haloxyfop of selected molecules
- Measurement Notes: enzyme kinetic measurements with purified protein
- Format: biochemical
- Test Settings: relative values
Measured Endpoint: Vmax Haloxyfop

Molecule	Endpoint Value
MON-HT53: engineered oxygenase protein, amino acid sequence SEQ ID NO:7 (protein) MHAALSPLSQRFERIAVQPLTGVLGAEITGVDLREPLSDSTWNEILDAFHTYQVIYFPGQAITNEQHIAFSRRFGPVDPVPLLKSIEGYPEVQMIRREANESGRVIGDDWHSDSTFLDAPPAAVVMRAIDVPEHGGDTGFLSMYTAYDALSDGLKKLISGLNVVHSATRVFGSLYQAQNRRFSNTSVKVMDVDAGDRETVHPLVVTHPGSGRKGLYVNQVYCQRIEGMSEKESEPLLSFLFAHATKPEFTCRVRWKKDQVLVWDNLCTMHYAINDYHGQTRILHRTTVGGVRPAR	64
MON-HT52: engineered oxygenase protein, amino acid sequence SEQ ID NO:4 (protein) MHAALSPLSQRFERIAVQPLTGVLGAEITGVDLREPLDDSTWNEILDAFHTYQVIYFPGQAITNEQQIAFSRRFGPVDPVPLLKSIEGYPEVQMIRREANESGRVIGDDWHTDSTFLDAPPAAVVMRAIDVPEHGGDTGFLSMYTAYDALSDGLKKLISGLNVVHSATRVFGSLYQAQNRRFSNTSVKVMDVDAGDRETVHPLVVTHPGSGRKGLYVNQVYCQRIEGMSEKESEPLLSFLFAHATKPEFTCRVRWKKDQVLVWDNLCTMHYAINDYHGQTRILHRTTVGGVRPAR	45
MON-HT51: engineered oxygenase protein, amino acid sequence SEQ ID NO:1 (protein) MHAALSPLSQRFERIAVQPLTGVLGAEITGVDLREPLSDSTWNEILDAFHTYQVIYFPGQAITNEQHIAFSRRFGPVDPVPLLKSIEGYPEVQMIRREANESGRVIGDDWHTDSSFLDAPPAAVVMRAIDVPEHGGDTGFLSMYTAYDALSDGLKKLISGLNVVHSATRVFGSLYQAQNRRFSNTSVKVMDVADGDRETVHPLVVTHPGSGRKGLYVNQVYCQRIEGMSEKESEPLLSFLFAHATKPEFTCRVRWKKDQVLVWDNLCTMHYAINDYHGQTRILHRTTVGGVRPAR	48
MON-HT54: engineered oxygenase protein, amino acid sequence SEQ ID NO:9 (protein) MHAALSPLSQRFERIAVQPLTGVLGAEITGVDLREPLDDSTWNEILDAFHTYQVIYFPGQAITNEQHIAFSRRFGPVDPVPLLKSIEGYPEVQMIRREANESGRVLGDDWHTDSTFLDAPPAAVVMRAIDVPEHGGDTGFLSMYTAYDALSDGLKKLISGLNVVHSATRVFGSLYQAQNRRFSNTSVKVMDVADGDRETVHPLVVTHPGSGRKGLYVNQVYCQRIEGMSEKESEPLLSFLFAHATKPEFTCRVRWKKDQVVVWDNLCTMHYAINDYHGQTRILHRTTVGGVRPAR	40
MON-HT55: engineered oxygenase protein, amino acid sequence SEQ ID NO:11 (protein) MHAALSPLSQRFERIAVQPLTGVLGAEITGVDLREPLDDSTWNEILDAFHTYQVIYFPGQAITNEQHIAFSRRFGPVDPVPLLKSIEGYPEVQMIRREANESGRVIGENWHTDSTFLDAPPAAVVMYAKEIPPYGGDTLFTSMYTAWETLSPTMQATIEGLNVVHSATRVFGSLYQAQNRRFSNTSVKVMDVDAGDRETVHPLVVTHPETGRKGLYVNQVYCQRIEGMSEKESEPLLSFLFAHATKPEFTCRVRWQEGDVLVWDNLCTQHYAVPDYAGKFRYLTRTTVGGVRPAR	190
